B1: F1*; the commonest letter at each place (parent)
chain: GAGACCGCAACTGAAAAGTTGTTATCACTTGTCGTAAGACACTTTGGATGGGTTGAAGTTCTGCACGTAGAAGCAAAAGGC

Variants of: B1
Assay: fraction ligated after 30 min (ligated reads / total reads); higher = more ligase activity
Conditions: with F1*sub RNA substrate (template-directed ligation), 42 °C
Parameter threshold = 0.8. Response is true (1) when fraction ligated meets or exceeds it, else false (0).

Reference set (3 entries):
INSERT INTO measurements (seq_text, classification) VALUES
  ('GAGACCGCAACTGAAAAGTTGTTATCACTTGTCGTAAGACACTTTGGAGGGGTTAAAGTTCTGCACGTAGAAGCAAAAGGC [T49G G55A]', 'false (0)'),
  ('GAGACCGCAACTGAAAAGTTGTTATCACTTGGAGTAAGACACTTTGGATGGGTTGAAGTTCTGCACGTAGAAGCAAAAGGC [T32G C33A]', 'true (1)'),
  ('GAGACCGCAACTGAAAAGTTGTTATCGCTTGTCGTAAGACACTTTGGTTGGGTTGAAGTTCTGCACGTAGAAGCAAAAGGC [A27G A48T]', 'false (0)');

Ask: Entry GAGACCGCAACTGAAAAGTTGTTATAACTTGTCGTAAGACACCTTGGATGGGTTGAAGTTCTGCACGTAGAAGCAAAAGGC [C26A T43C] : is its fraction ligated no less than 0.8?
Reply: false (0)

Ask: Entry GAGACCGCAACTGAAAAGTTGTTATCACTTGTCGTAAGACACTTTGGTTGGGTTGACGTTCTGCACGTAGAAGCAAAAGGC [A48T A57C] : is its fraction ligated no less than 0.8?
Reply: false (0)

Ask: Entry GAGACCGCAACTGAAAAGTTGTTATCACTTGTCGTAAAACATTTTGGATGGGTTGAAGTTCTGCACGTAGAAGCAAAAGGC [G38A C42T] : is its fraction ligated no less than 0.8?
Reply: true (1)

Ask: Entry GAGACCGCAACTGAAAAGTTGTTTTCACTTGTCGTAAGACCCTTTGGATGGGTTGAAGTTCTGCACGTAGAAGCAAAAGGC [A24T A41C] : is its fraction ligated no less than 0.8?
Reply: false (0)

Ask: Entry GAGACCGCAACTGAAAAGTTGTTATCACTTGTCGTAGGACACTTGGGATGGGTTGAAGTTCTGCACGTAGAAGCAAAAGGC [A37G T45G] : is its fraction ligated no less than 0.8?
Reply: false (0)

Ask: Entry GAGACCGCAACTGAAAAGTTGTTATCACTTCTCGTAAGACACTTTGGATGGGTTGCAGTTCTGCACGTAGAAGCAAAAGGC [G31C A56C] : is its fraction ligated no less than 0.8?
Reply: false (0)

Ask: Entry GAGACCGCAACTGAAAAGTTGTTATCACTTGTCGTAAGACCCTATGGATGGGTTGAAGTTCTGCACGTAGAAGCAAAAGGC [A41C T44A] : is its fraction ligated no less than 0.8?
Reply: false (0)

Ask: Entry GAGACCGCAACTGAAAAGTTGTTATCACTTGACGTAAGACACTTTGGTTGGGTTGAAGTTCTGCACGTAGAAGCAAAAGGC [T32A A48T] : is its fraction ligated no less than 0.8?
Reply: false (0)

Ask: Entry GAGACCGCAACTGAAAAGTTGTTTTCACTTCTCGTAAGACACTTTGGATGGGTTGAAGTTCTGCACGTAGAAGCAAAAGGC [A24T G31C] : is its fraction ligated no less than 0.8?
Reply: false (0)

Ask: Entry GAGACCGCAACTGAAAAGTTGTTATCACTTGTCGTAAGACACCTTGGATAGGTTGAAGTTCTGCACGTAGAAGCAAAAGGC [T43C G50A] : is its fraction ligated no less than 0.8?
Reply: false (0)

Ask: Entry GAGACCGCAACTGAAAAGTTGTTATCACTTGTCGGAAGACACTGTGGATGGGTTGAAGTTCTGCACGTAGAAGCAAAAGGC [T35G T44G] : is its fraction ligated no less than 0.8?
Reply: true (1)

Ask: Entry GAGACCGCAACTGAAAAGTTGTTATCACTTGTCGTAAGAAGCTTTGGATGGGTTGAAGTTCTGCACGTAGAAGCAAAAGGC [C40A A41G] : is its fraction ligated no less than 0.8?
Reply: false (0)

Ask: Entry GAGACCGCAACTGAAAAGTTGTTTTCTCTTGTCGTAAGACACTTTGGATGGGTTGAAGTTCTGCACGTAGAAGCAAAAGGC [A24T A27T] : is its fraction ligated no less than 0.8?
Reply: false (0)

Ask: Entry GAGACCGCAACTGAAAAGTTGTTATCACTTGTCGTAAGACACCTTGGATGGGTTGCAGTTCTGCACGTAGAAGCAAAAGGC [T43C A56C] : is its fraction ligated no less than 0.8?
Reply: false (0)

Ask: Entry GAGACCGCAACTGAAAAGTTGTTATCCCTTGCCGTAAGACACTTTGGATGGGTTGAAGTTCTGCACGTAGAAGCAAAAGGC [A27C T32C] : is its fraction ligated no less than 0.8?
Reply: false (0)

Ask: Entry GAGACCGCAACTGAAAAGTTGTTAGCACTTGTCGTAAGACACTTTGGAAGGGTTGAAGTTCTGCACGTAGAAGCAAAAGGC [T25G T49A] : is its fraction ligated no less than 0.8?
Reply: false (0)

Ask: Entry GAGACCGCAACTGAAAAGTTGTTCTCACTTGTCGTAAGACACTTTGGATGGGTTGATGTTCTGCACGTAGAAGCAAAAGGC [A24C A57T] : is its fraction ligated no less than 0.8?
Reply: false (0)
